Origin of measurements: the RNAGym collection of RNA variant scans (doi:10.7554/elife.90254)

B1: LINE1-mini (parent)
chain: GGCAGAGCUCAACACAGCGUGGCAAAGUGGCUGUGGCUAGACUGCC

variants of: B1; assay: self-cleavage, relative activity (ratio to wild type); higher = more cleavage; in vitro, sequencing; the parent is a self-cleaving ribozyme
Class membership depends on self-cleavage alone; the intervals are LOW (below 0.09), MEDIUM (0.09 to below 0.2), HIGH (0.2 or more)

A selection of reference data follows.
>>> answerlabel("GGCAGAGCUCAACACAUCGUGGCAAAGUGGCCGUGGCUAGACUGCC")
"MEDIUM"
>>> answerlabel("GGCAGAGCACAACACAGCGUGGCAAAGUGGCUGUGGCUCGACUGCC")
"MEDIUM"
>>> answerlabel("GGCAGAGCUCAAGACAGCGUGGCAAUGUGGCUGUGGCUAGACUGCC")
"MEDIUM"
>>> answerlabel("GGCAGAGCUCAACACAGCGUGGCACAGUGGCCGUGGCUAGACUGCC")
"HIGH"
>>> answerlabel("GGCAGAGCUCAAGACAGCGUGGCAAAGUGGCUGUGGCUAGACUGGC")
"HIGH"

Class (by measured self-cleavage) for GGAAGCGCUCAACACAGCGUGGCAAAGUGGCUGUGGCUAGACUGCC HIGH

Hey, which category is GGCAGAGCUCAACACAGCCUGGCAAAGUCGCUGUGGCUAGACUGCC in, do you know? HIGH

Where would GGCAGAGCGCAACACAGCCUGGCAAAGUGGCUGUGGCUAGACUGCC land among the classes by reported self-cleavage? LOW

Class for GGCAGAGCUCAACACAGCGUGGCACAGUGGCUGUGGCUAGAUUGCC ? HIGH

// return the class label for GGCAGAGCCCAACACAGCGUGGCAAAGUGGCUGUGGCUAGACUGCU LOW

# bin label for GGCAGAGCUCAACACAACGUGGCAAAGUGGCUCUGGCUAGACUGCC LOW

Using the reported self-cleavage, which band applies to GGCAGAGCUCAACACAGCGUGGCAAAGUGUCUGUGGCUAGGCUGCC ? HIGH

Tag the class for GGCAGAGCUCAACACGGCGUGGCUAAGUGGCUGUGGCUAGACUGCC HIGH

Could you tell me which band GGCACAGAUCAACACAGCGUGGCAAAGUGGCUGUGGCUAGACUGCC belongs to? MEDIUM

# classify by self-cleavage band: GGCAGAGCUCAACACAGCUUGGCAAAGUGGCUGAGGCUAGACUGCC MEDIUM

Please classify: GGCAGAGCUCAACACAGCGUGGCAAAGUGACUGUGGUUAGACUGCC MEDIUM

Hi, small favor: classify GGCAGAGCUCAACACAGCGUGGCAUAGUGUCUGUGGCUAGACUGCC by its self-cleavage when you get a moment. HIGH

Classify this variant: GGCAGAGCUCAACACAGCGUGGUAAAGUGGCUGUGUCUAGACUGCC LOW
